Listing of entries alongside the reported Survival.
- SYSTEM_TESTED: ATP-dependent translocase ABCB1 (Homo sapiens)
- Sequence (P08183 whole entry): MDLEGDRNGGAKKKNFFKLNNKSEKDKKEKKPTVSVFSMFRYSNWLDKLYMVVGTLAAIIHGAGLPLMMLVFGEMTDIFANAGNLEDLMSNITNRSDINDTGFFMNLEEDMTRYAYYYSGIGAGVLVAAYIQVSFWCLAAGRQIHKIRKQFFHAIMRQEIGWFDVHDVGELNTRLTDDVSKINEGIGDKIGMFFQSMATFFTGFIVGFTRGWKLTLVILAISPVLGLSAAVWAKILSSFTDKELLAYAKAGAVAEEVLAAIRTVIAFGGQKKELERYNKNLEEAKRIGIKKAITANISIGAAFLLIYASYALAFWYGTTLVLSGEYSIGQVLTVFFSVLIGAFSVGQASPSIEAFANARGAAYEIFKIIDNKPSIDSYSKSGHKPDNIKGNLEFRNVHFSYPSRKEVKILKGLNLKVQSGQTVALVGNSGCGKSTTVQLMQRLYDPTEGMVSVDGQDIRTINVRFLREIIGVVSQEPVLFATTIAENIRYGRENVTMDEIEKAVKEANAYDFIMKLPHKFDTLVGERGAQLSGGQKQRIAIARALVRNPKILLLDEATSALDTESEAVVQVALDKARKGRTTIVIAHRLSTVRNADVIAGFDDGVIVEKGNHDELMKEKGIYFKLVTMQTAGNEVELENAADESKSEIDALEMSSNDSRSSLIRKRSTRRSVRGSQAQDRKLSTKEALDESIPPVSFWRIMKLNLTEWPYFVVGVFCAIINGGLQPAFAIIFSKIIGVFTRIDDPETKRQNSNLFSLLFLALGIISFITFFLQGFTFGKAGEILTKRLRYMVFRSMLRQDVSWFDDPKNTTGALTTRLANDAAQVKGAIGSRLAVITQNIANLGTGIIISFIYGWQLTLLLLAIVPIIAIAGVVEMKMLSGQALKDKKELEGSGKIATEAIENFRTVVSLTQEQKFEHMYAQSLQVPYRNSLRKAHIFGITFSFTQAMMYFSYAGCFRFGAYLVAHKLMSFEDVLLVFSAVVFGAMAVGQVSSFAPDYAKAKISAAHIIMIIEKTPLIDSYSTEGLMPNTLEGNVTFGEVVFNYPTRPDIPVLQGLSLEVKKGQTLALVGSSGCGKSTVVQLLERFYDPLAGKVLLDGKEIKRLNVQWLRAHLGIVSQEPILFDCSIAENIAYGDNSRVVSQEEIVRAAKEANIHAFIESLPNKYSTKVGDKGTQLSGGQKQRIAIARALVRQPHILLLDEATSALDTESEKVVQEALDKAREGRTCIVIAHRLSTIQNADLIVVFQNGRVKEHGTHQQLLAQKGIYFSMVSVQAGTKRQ
- EXPERIMENT_DESCRIPTION: Reversal of P-gp-mediated multidrug resistance in human KBV cells assessed as potentiation of paclitaxel-induced cytotoxicity by measuring cell survival at 5 uM after 72 hrs by MTT assay (reference value: 104 +/- 8%)
- Type: cell-based
QUANTITY_MEASURED: Survival

| COMPOUND_STRUCTURE_STRING | RESULT |
| --- | --- |
| CC(C)(C)OC(=O)NCCCC(=O)N[C@H]1CC[C@]2(C)[C@H]3C[C@@H](O)[C@@H]4[C@@H]([C@]5(C)CC[C@H](C(C)(C)O)O5)CC[C@@]4(C)[C@]3(C)CC[C@H]2C1(C)C | 48% |
| CC(C)(O)[C@H]1CC[C@@](C)([C@H]2CC[C@]3(C)[C@@H]2[C@H](O)C[C@@H]2[C@@]4(C)CC[C@H](NC(=O)c5cccnc5)C(C)(C)[C@@H]4CC[C@]23C)O1 | 55% |
| CC(C)(O)[C@@H]1CC[C@@](C)([C@H]2CC[C@]3(C)[C@@H]2[C@H](O)C[C@@H]2[C@@]4(C)CC[C@H](NC(=O)CCCCCN)C(C)(C)[C@@H]4CC[C@]23C)O1 | 105% |
| CC(C)(C)OC(=O)NCCCCCC(=O)N[C@H]1CC[C@]2(C)[C@H]3C[C@@H](O)[C@@H]4[C@@H]([C@]5(C)CC[C@H](C(C)(C)O)O5)CC[C@@]4(C)[C@]3(C)CC[C@H]2C1(C)C | 46% |
| CC(C)(O)[C@H]1CC[C@@](C)([C@H]2CC[C@]3(C)[C@@H]2[C@H](O)C[C@@H]2[C@@]4(C)CC[C@H](NC(=O)c5ccccc5C(=O)O)C(C)(C)[C@@H]4CC[C@]23C)O1 | 96% |
| CCCCCCCC(=O)N[C@H]1CC[C@]2(C)[C@H]3C[C@@H](O)[C@@H]4[C@@H]([C@]5(C)CC[C@H](C(C)(C)O)O5)CC[C@@]4(C)[C@]3(C)CC[C@H]2C1(C)C | 56% |
| CC(C)(O)[C@H]1CC[C@@](C)([C@H]2CC[C@]3(C)[C@@H]2[C@H](O)C[C@@H]2[C@@]4(C)CC[C@H](NC(=O)c5ccc(N)cc5)C(C)(C)[C@@H]4CC[C@]23C)O1 | 77% |
| CC(C)(O)[C@H]1CC[C@@](C)([C@H]2CC[C@]3(C)[C@@H]2[C@H](O)C[C@@H]2[C@@]4(C)CC[C@H](NC(=O)c5ccccc5O)C(C)(C)[C@@H]4CC[C@]23C)O1 | 51% |
| CC(C)(O)[C@H]1CC[C@@](C)([C@H]2CC[C@]3(C)[C@@H]2[C@H](O)C[C@@H]2[C@@]4(C)CC[C@H](NC(=O)CCCCCN)C(C)(C)[C@@H]4CC[C@]23C)O1 | 91% |
| CC(C)(O)[C@H]1CC[C@@](C)([C@H]2CC[C@]3(C)[C@@H]2[C@H](O)C[C@@H]2[C@@]4(C)CC[C@H](NC(=O)c5ccccc5)C(C)(C)[C@@H]4CC[C@]23C)O1 | 59% |
